Quick list: protein stability index per entry.
B1: WDR41 (parent)
chain: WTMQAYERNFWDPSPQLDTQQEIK

- Variants of: B1
- protocol.summary: protein stability index of a GFP-peptide fusion (GPS, HEK-293T) (PSI 1-6); higher = more stable;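 further: lentivirally expressed fusions sorted by FACS into six bins by GFP to DsRed ratio, PSI derived from sequencing read proportions per bin multiplied by bin number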
- run.conditions: c terminus: a fixed tail appended
// no unit, no text: just the number

# variant.notation, protein stability index
measured = [
    ("L17Q", 3.18),
    ("Q20M", 2.27),
    ("Q20G", 2.19),
    ("T2N", 2.11),
]

For the next question, use this variant.
Exercise: Return reported protein stability index; argument: W11T
Key: 3.93
